study.system: MBR (mitochondrial benzodiazepine recognition site) (Rattus norvegicus)
Construct: Brain and adrenal glands were removed and homogenized with Polytron; from tissue; host or cells: mitochondrial fraction of Sprague Dawley rat brain and adrenal glands
test.protocol: Displacement of ^3 H-RO5-4864 from mitochondrial BZD recognition site (MBR)
Format: binding, Sprague Dawley rat
condition.description: displacement of 1 nM ^3 H-RO5-4864, rat mitochondria; range in parentheses
Lab note: compare IC50 with 80 nM, writing y if less and n if equal or more.

Record excerpt, results attached:
molecule	classification
CCCN(CCC)C(=O)Cc1c(-c2ccc(Cl)cc2)[nH]c2ccc(Cl)cc12	y
CCCN(CCC)C(=O)Cc1c2n(c3ccccc13)Cc1ccccc1-2	y
CCCCCCNC(=O)Cc1c(-c2ccccc2)[nH]c2ccccc12	y
CCCCCCN(CCCCCC)C(=O)Cc1c(-c2ccc(F)cc2)[nH]c2ccccc12	y
CCCN(CCC)C(=O)Cc1c(-c2ccc(Cl)cc2)n(C)c2ccccc12	n

QUERY: hey, is IC50 for CCCN(CCC)C(=O)C(C)c1c(-c2ccc(Cl)cc2)[nH]c2ccccc12 (centres unmarked) lower than 80 nM or not?
RESULT: n

QUERY: hey, is IC50 for "CCCN(CCC)C(=O)Cc1c(-c2ccc(Br)cc2)[nH]c2ccccc12" lower than 80 nM or not?
RESULT: y

QUERY: hey, is IC50 for "CCCN(CCC)C(=O)Cc1c(-c2ccc(F)cc2)[nH]c2ccccc12" lower than 80 nM or not?
RESULT: y

----------
study.system: MBR (mitochondrial benzodiazepine recognition site) (Rattus norvegicus, UniProt P16257)
Construct: Brain and adrenal glands were removed and homogenized with Polytron; from tissue; host or cells: mitochondrial fraction of Sprague Dawley rat brain and adrenal glands
test.protocol: Displacement of ^3 H-PK11195 from mitochondrial BZD recognition site (MBR)
Type: binding, Sprague Dawley rat
condition.description: displacement of 1 nM ^3 H-PK11195, rat mitochondria; range in parentheses
Description: Mitochondrial Preparation: Sprague Dawley rats (200-250 gr.) were killed by decapitation. Brain and adrenal glands were removed and homogenized with Polytron for 15 minutes in ice cold buffer (10 mM Na/KPO4, 0.32M sucrose, pH 7.4). The homogenate was centrifuged for 15 minutes at 6,500 xg at 4° C. The resulting supernatant was centrifuged for 15 minutes at […] at 4° C. The pellet was suspended in buffer (20 times) by gentle homogenization and centrifuged at 10,000 xg at 4° C. for 15 minutes. […]
Kindly state IC50 for each of the entries shown.
Numbers only, in nM.

// solved cases for IC50 follow
compound.string	IC50 [nM]
CCCN(CCC)C(=O)Cc1c(-c2cccc(Cl)c2)[nH]c2ccccc12	100
CCCN(CCC)C(=O)Cc1c(-c2cccs2)[nH]c2ccccc12	24
CN(C)C(=O)Cc1c(-c2ccccc2)[nH]c2ccccc12	600
CCCN(CCC)C(=O)Cc1c(-c2cccs2)[nH]c2ccc(Cl)cc12	50
CCCN(CCC)C(=O)CCc1c(-c2ccc(Cl)cc2)[nH]c2ccc(Cl)cc12	180

QUERY: What IC50 value was documented for this compound, "CCCN(CCC)C(=O)C=Cc1c(-c2ccc(Cl)cc2)[nH]c2ccccc12" ?
RESULT: 700

----------
Kindly state IC50 for each of the entries shown.
study.system: MBR (mitochondrial benzodiazepine recognition site) (Rattus norvegicus, UniProt P16257)
Construct: Brain and adrenal glands were removed and homogenized with Polytron; from tissue; host or cells: mitochondrial fraction of Sprague Dawley rat brain and adrenal glands
test.protocol: Displacement of ^3 H-RO5-4864 from mitochondrial BZD recognition site (MBR)
Assay type: binding, Sprague Dawley rat
condition.description: displacement of 1 nM ^3 H-RO5-4864, rat mitochondria; range in parentheses
Give bare numbers, in nM.

// solved cases for IC50 follow
compound.string	IC50 / nM
CCCN(CCC)C(=O)Cc1c(-c2cccc(Cl)c2)[nH]c2ccccc12	80
Cc1ccc(-c2[nH]c3ccc(C)cc3c2CC(=O)N(C)C)cc1	255
CCCN(CCC)C(=O)C=Cc1c(-c2ccc(Cl)cc2)[nH]c2ccccc12	600
CCCN(CCC)C(=O)Cc1c(-c2ccc(Cl)cc2)[nH]c2ccccc12	25.5

Now, please, on to the next compound.
QUERY: What IC50 value was documented for this compound, "CCCN(CCC)C(=O)CCc1c(-c2ccc(Cl)cc2)[nH]c2ccc(Cl)cc12" ?
RESULT: 120
